Assay: NCI Yeast Anticancer Drug Screen. Data for the mec2-1 strain (AID 157)
Conditions: S. cerevisiae mec2-1 strain, at 1.2 µM, hits give high values
This is part of a sample that, as a whole, favours compounds with a hit. Of some 79,000 tested, about 15% had one in any assay.

COMPOUND	growth inhibition (%)
COc1cccc(/C=C2\S/C(=N/Nc3nc(-c4ccc([N+](=O)[O-])cc4)cs3)NC2=O)c1O	1
O=C1NC(c2cccc(OCc3ccccc3)c2)Nc2ccccc21 (centres undefined)	13
COc1ccc(/C=C2\SC(=S)N(/C=C3\C(=O)N(c4ccccc4)N=C3C)C2=O)cc1OC	3
CCCCCCCCCCCCOCCOCCOCC(N)=O	-6
O=C(CN(c1ccccc1)c1ccccc1)n1nnc2ccccc21	-9
CN(N=O)C(=O)Nc1ccc(C(=O)O)cc1	-10
NC(N)=NC(N)=Nc1ccccc1 (tested in a mixture with another compound)	3
N#CCC(=O)N/N=C(\c1ccccc1)C(c1ccccc1)C1(O)C(=O)Nc2c(Cl)ccc(Cl)c21 (centres undefined)	3
CCN(CC)CCC(=O)Nc1ccc2sc3ccccc3c(=O)c2n1	1
Fc1cc(F)c(F)c(S)c1F	-56
NCCOc1ccc(/C(=C(/Cl)c2ccccc2)c2ccccc2)cc1	-5
CC(C)=CCC/C(C)=C/CN1C(=O)C=CC1=O	-3
COc1cc2oc3ccccc3c(=O)c2cc1CSc1ccccc1N	-2
O=S(=O)(c1ccccc1)N1CN2CN(C1)CN(S(=O)(=O)c1ccccc1)C2	-2

----------
Test: NCI Yeast Anticancer Drug Screen. Data for the rad50EPP+ strain (AID 151);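 further: 0% = growth of vehicle-treated control cultures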
Settings: S. cerevisiae rad50 mutant strain, at 1.2 µM, hits give high values
Compounds without any hit were thinned out: in the full panel of roughly 79,000, 15% have a hit. Residues, ends and D or L forms follow the SMILES beside them. *: point of attachment. Fmoc = O=C(OCC1c2ccccc2-c2ccccc21)*; Boc = CC(C)(C)OC(=O)*
Let's look at some compounds and their measured growth inhibition.
METRIC: growth inhibition (%)

COMPOUND	NUMBER
CN(C)N=Nc1ccc(N(C)C)cc1	4
C=CC(C)(C)N1C(=O)C(C(C)=O)=C(O)C1Cc1c[nH]c2ccccc12 (stereo not drawn)	-1
CC(C)(C)OC(=O)NCCCCC(NC(=O)C(Cc1c[nH]c2ccccc12)NC(=O)OCC1c2ccccc2-c2ccccc21)C(=O)O (stereo not drawn) (Fmoc-Trp-Lys(Boc)-OH; configuration not given here)	-1

----------
Assay: NCI Yeast Anticancer Drug Screen. Data for the mec2-1 strain (AID 157)
Conditions: S. cerevisiae mec2-1 strain, at 33.0 µM
About 79,000 compounds went through this panel and 15% of them were active in at least one assay; those are over-represented in the sample as a whole. Calls of active or inactive are those of the source. Cut-off read from the data, not from the text of the source: active = growth inhibition above about 70%; inactive = the rest.
Possible outcomes: label 1 for active, label 0 for inactive

COMPOUND	CATEGORY_LABEL
BrC1C2CCC3OC3C12 (stereo unspecified)	label 1
O=C1C=CC(=Nc2cccc3c2-c2ccccc2C3=O)O1	label 1
Cc1oc2ccccc2c(=O)c1Cn1nnc2ccccc21	label 0
CN(C)CCNC(=Cc1ccc2ccccc2[n+]1C)NCCN(C)C	label 0
O=C1c2ccccc2-c2cc3ccccc3c(=O)n21	label 1
CC(=O)/C=C/c1cccc([N+](=O)[O-])c1	label 0
Cc1cccc2c(NCCCN(C)C)c3c([N+](=O)[O-])ccc(C)c3nc12	label 1
CCCCCCCCSC1=C(Cl)C(=O)C(OC)=C(OC)C1=O	label 0
Cc1c2c(nc3ccccc13)C(=O)c1cccnc1C2=O	label 0
COc1cc(NCCCCNCC(C)(C)C)c2ncccc2c1	label 0
CC(=O)CC(c1ccccc1)c1c(O)c2ccccc2oc1=O (stereo unspecified)	label 0
COC(=O)c1cnc(Cl)c([N+](=O)[O-])c1	label 1
CCOc1ccc(N)c(S)c1	label 0
C/C(=N\OCC(O)CNCCSCc1ccccc1)c1ccccc1Cl (stereo unspecified)	label 0
O=[N+]([O-])c1cn[n+]([O-])c2ccccc12	label 1
Nc1cc(Cl)ccc1Nc1ccccc1	label 0
COc1cccc(/C=C2\S/C(=N/Nc3nc(-c4ccc([N+](=O)[O-])cc4)cs3)NC2=O)c1O	label 1
CNCC(C)CNC	label 0
O=C(Cc1ccccc1)NNc1nc(NNC(=O)c2ccncc2)nc(Nc2ccc([N+](=O)[O-])cc2)n1	label 0
CC12CCC(CC(=O)/C1=C(/Br)I)C2(C)C (stereo unspecified)	label 0
Clc1nc(Cl)nc(Nc2cccc3ccccc23)n1	label 1
NCCCSc1ccccc1	label 0
Nc1cc2c(cc1N)-c1ccccc1C2=O	label 0
Nc1ccc(S(=O)(=O)Nc2nc3c(c(=O)[nH]2)CCCC3)cc1	label 1
O=c1cccccc1[O-].O=c1cccccc1[O-].O=c1cccccc1[O-].[Eu+3]	label 1
Cc1c2cc[n+](CCO)cc2c(C)c2c1[nH]c1ccc(O)cc12	label 0
CC(=O)Oc1ccc2c(c1)Cc1cc(N3C(=O)C=CC3=O)ccc1-2	label 1
CC1(C)CC(=O)C(/C=N/c2nc(-c3ccc(Br)cc3)cs2)=C(O)C1	label 1
C[C@H](CCC1=NC(C)(C)CO1)C1CCC2[C@@H]3C(O)C[C@@H]4CC(O)CC[C@]4(C)C3CC[C@@]21C (stereo partly specified)	label 1
CC(C)[Si]1(C(C)C)OCC2OC(n3cnc4c(N)ncnc43)C(N)C2O[Si](C(C)C)(C(C)C)O1 (stereo unspecified)	label 1
O=C(C(Cl)=C(N1CCCCC1)N1CCCCC1)C(Cl)Cl	label 0
O=[N+]([O-])/C=C/c1cc2ccc3ccccc3c2[nH]1	label 1
CCCCCCNCCCNc1c2ccccc2nc2cccc([N+](=O)[O-])c12	label 1
CC(C)N(CCCNc1c2ccccc2nc2cccc([N+](=O)[O-])c12)C(C)C	label 1
O=C(NCCCCN1CC2CCCC2C1)C(C1CCCCC1)C1CCCCC1 (stereo unspecified)	label 1
COc1cc(C(=O)C=O)cc(OC)c1OC	label 0
CCCCCCCCCCCCCCCCCCN(C)C(COC)COP(=O)([O-])OCC[N+](C)(C)C (stereo unspecified)	label 1
CCCCCCCN1C(=O)c2ccccc2C1=O	label 0
Cc1cc2nc3ccccc3n2c2ccccc12	label 0
COC1/C=C\C=C(/C)C(=O)NC2=CC(=O)C(=O)C(=C2O)CC(C)CC(OC)C(O)C(C)/C=C(\C)C1OC(N)=O (stereo unspecified)	label 1
CCOP(=O)(OCC)/C(C#N)=C/c1cccc(Oc2ccccc2)c1	label 1
CCCC/C=C1\CCC(CN2CCCC2)C1=O (stereo unspecified)	label 0
CC(C)Cc1ncc(CCCN=C(N)N)[nH]c1=O	label 0
COc1cc2oc3ccccc3c(=O)c2cc1CSc1ccccc1N	label 0
CC1(c2ccccc2)O[C@@H]2C[C@H]3[C@@H]4CCC5=CC(=O)C=C[C@]5(C)[C@@]4(F)[C@@H](O)C[C@]3(C)[C@]2(C(=O)CO)O1 (stereo partly specified)	label 0
NCCOc1ccc(/C(=C(/Cl)c2ccccc2)c2ccccc2)cc1	label 1

Source: PubChem BioAssay (NCI)
